// provenance: patent US20030059436A1

# assay target: GST-MSP142 (P. falciparum FCB1 MSP1 42 kDa fragment as GST fusion protein) (Plasmodium falciparum (FCB1 strain)) [GST: P08515]
# Sequence (P08515 whole entry, the tested form may be a part): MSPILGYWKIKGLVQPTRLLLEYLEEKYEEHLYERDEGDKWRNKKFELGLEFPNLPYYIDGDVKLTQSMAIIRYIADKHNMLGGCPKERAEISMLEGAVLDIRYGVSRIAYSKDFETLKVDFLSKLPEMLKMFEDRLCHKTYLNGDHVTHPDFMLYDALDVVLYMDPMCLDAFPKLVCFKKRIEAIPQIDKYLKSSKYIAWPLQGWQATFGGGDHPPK
# experiment notes: solution-binding assay, 32P-labeled peptide on GST fusion beads
measurement kind: pKd
Schema: pKd number; meaning minus log10 of the concentration expressed in molar units.

Looking up GMPWLSATTVRSVTHANALTVMGKASTPGAAAQIQEVKEQRI (peptide, not shown: small tags and cut ends, modifications not checked) [32P-labeled 5ABC (recombinant human Band 3 amino acid 720-761, GST removed with thrombin)] , I see its pKd listed as 4.44
